Exercise: for every item that follows, state its recorded Selectivity index (SI) (KI off-target CA/KI target CA) Towards hCA XII.
Tgt: hCA XII (Homo sapiens, UniProt O43570)
Construct: made in house
Sequence (O43570 25-354): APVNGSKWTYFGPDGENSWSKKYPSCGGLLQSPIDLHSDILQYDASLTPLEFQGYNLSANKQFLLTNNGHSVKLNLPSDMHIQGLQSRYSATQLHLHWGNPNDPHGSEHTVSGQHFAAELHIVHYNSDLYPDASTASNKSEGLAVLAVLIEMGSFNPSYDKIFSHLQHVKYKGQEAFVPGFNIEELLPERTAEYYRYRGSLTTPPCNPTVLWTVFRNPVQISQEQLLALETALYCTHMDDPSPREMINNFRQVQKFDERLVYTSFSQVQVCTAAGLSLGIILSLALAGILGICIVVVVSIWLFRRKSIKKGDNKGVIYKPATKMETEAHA
Protocol notes: stopped-flow CO2 hydrase assay, hCA XII
Assay type: biochemical
Run conditions: ratio of KI for hCA I and II relative to hCA XII

**Q:** Observed Selectivity index (SI) (KI off-target CA/KI target CA) Towards hCA XII on hCA XII (Homo sapiens, UniProt O43570) for Cc1nc(-c2cc3ccccc3oc2=O)ccc1C(=O)/C=C/c1ccc(F)cc1 , please.
**A:** >37.04

**Q:** Observed Selectivity index (SI) (KI off-target CA/KI target CA) Towards hCA XII on hCA XII (Homo sapiens, UniProt O43570) for Cc1nc(-c2cc3ccccc3oc2=O)ccc1C(=O)/C=C/c1ccc(N(C)C)cc1 , please.
**A:** >14.92

**Q:** Observed Selectivity index (SI) (KI off-target CA/KI target CA) Towards hCA XII on hCA XII (Homo sapiens, UniProt O43570) for Cc1nc(-c2cc3ccccc3oc2=O)ccc1C(=O)/C=C/c1ccc2c(c1)OCO2 , please.
**A:** >14.71

**Q:** Observed Selectivity index (SI) (KI off-target CA/KI target CA) Towards hCA XII on hCA XII (Homo sapiens, UniProt O43570) for CC(=O)c1ccc(-c2cc3ccccc3oc2=O)nc1C , please.
**A:** >147.06

* * *

Property measured: melting point

**Q:** Look up melting point for this compound: COc1ccc(/C=C/C(=O)c2ccc(-c3cc4ccccc4oc3=O)nc2C)cc1
**A:** 174 to 175 °C

**Q:** Look up melting point for this compound: Cc1nc(-c2cc3ccccc3oc2=O)ccc1C(=O)/C=C/c1cccc2ccccc12
**A:** 204 to 206 °C

**Q:** Look up melting point for this compound: Cc1nn(-c2ccccc2)cc1/C=C/C(=O)c1ccc(-c2cc3ccccc3oc2=O)nc1C
**A:** 204 to 206 °C

**Q:** Look up melting point for this compound: Cc1nc(-c2cc3ccccc3oc2=O)ccc1C(=O)/C=C/c1ccc(Cl)cc1
**A:** 223 to 225 °C
